Assay: protein stability index of a GFP-peptide fusion (yeast GPS) (PSI 1-4); higher = more stable; sorted into four equal gates, so the index is relative within each strain
Conditions: doa10∆
# Lookup of reported protein stability index keyed by entry
recorded-endpoint: protein stability index

>>> df
                    ordered_residues        recorded_endpoint  endpoint_value
0           SMSGRISAKDMGQGLCN [BRR2]  protein stability index               3
1           IHSKSMSVERGIRWELI [RPT1]  protein stability index            3.06
2  AMICEAKGLIENIFEGE [YJR042W/NUP85]  protein stability index            2.94
3           QLIDQFEWDISNSDNCP [SNF5]  protein stability index            3.02
4         PIAQPATDVEARAVQDN [RPL13A]  protein stability index            3.02
5          LLTPKSGEPIIAATQDF [RPO31]  protein stability index            2.92
6          LVFILAVVGNNMLLDPA [RRP42]  protein stability index            1.56
7           NQNICTSVTRRSPVFAL [GRR1]  protein stability index            1.43
8           VDKELLEPGCSVLLHHK [RPT2]  protein stability index            2.95
9           ENANAANNGAAFSPLTT [MED2]  protein stability index             3.1
